These entries and their values trace back to ChEMBL document CHEMBL5120816.

Hi there, I'd appreciate the recorded PC50 for every entry that follows.
Test system: MIA PaCa-2
Assay: Preferential cytotoxicity against human MIA PaCa-2 cells in nutrient-deprived medium
Assay type: functional
Entry rule: numbers only, all in µM.

Bench note: what PC50 did CC(C)C1=CC[C@H]2C(=C1)C(=O)C[C@@H]1[C@]2(C)CCC[C@@]1(C)C(=O)O show? 42.3

Likewise for CC(C)c1ccc2c(c1)CC[C@H]1[C@](C)(CO)CCC[C@]21C ? 6.6

Same read-out for C=C/C(C)=C\C[C@@H]1[C@@]2(C)CCCC(C)(C)[C@@H]2CC(=O)[C@@]1(C)O ? 15.2

---

Hi there, I'd appreciate the recorded PC50 for every entry that follows.
Tested on: MIA PaCa-2
Assay: Preferential cytotoxicity against human MIA PaCa-2 cells in nutrient-deprived medium
Format: functional

Dear colleague, I am looking for the recorded PC50 of the following compound: COc1cc(C[C@H]2C(=O)OC[C@@H]2Cc2ccc(OC)c(OC)c2)ccc1O 0.7 µM

Can you check CC(C)[C@@]1(O)C=C2C(=O)C[C@H]3[C@](C)(COC(=O)CCC(=O)O)CCC[C@]3(C)[C@H]2CC1 next? 82.9 µM

Same lookup for C[C@@]1(CO)CCC[C@]2(C)[C@H]3CCC(=O)C=C3CC[C@@H]12 , please. 35.8 µM

Queued: CC(C)c1ccc2c(c1)CC[C@H]1[C@](C)(C(=O)O)CCC[C@]21C [DEHYDROABIETIC ACID] 16.9 µM

// repeat for CC(C)[C@@]1(O)C=C2C(=O)C[C@@H]3[C@](C)(CCC[C@@]3(C)C(=O)O)[C@H]2CC1 and report 70.7 µM

And the next one, C[C@]12CCC[C@@](C)(C(=O)O)[C@@H]1CCC1=CC(=O)CC[C@@H]12 ? 55.5 µM
